SUBJECT OF TEST: Mu-type opioid receptor (Homo sapiens)
Sequence (P35372 whole entry): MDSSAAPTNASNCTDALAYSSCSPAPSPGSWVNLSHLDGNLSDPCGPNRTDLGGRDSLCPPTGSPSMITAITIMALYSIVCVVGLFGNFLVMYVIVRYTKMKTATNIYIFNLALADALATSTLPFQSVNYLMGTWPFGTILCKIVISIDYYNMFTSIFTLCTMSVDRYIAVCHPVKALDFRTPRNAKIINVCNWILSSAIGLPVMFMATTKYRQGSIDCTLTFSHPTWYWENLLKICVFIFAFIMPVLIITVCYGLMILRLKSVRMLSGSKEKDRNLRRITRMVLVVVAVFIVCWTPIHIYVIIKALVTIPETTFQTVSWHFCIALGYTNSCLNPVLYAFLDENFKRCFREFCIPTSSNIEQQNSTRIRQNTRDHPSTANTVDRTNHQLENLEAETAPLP
PROTOCOL NOTES: Agonist activity at human MOR expressed in HEK-293T cells assessed as inhibition of forskolin-stimulated cAMP accumulation incubated for 30 mins by Glo-sensor cAMP assay relative to DAMGO
Assay type: functional, cell-based
SETUP CONDITIONS: HEK293T, filed as agonist
Short version: Emax at least 70% is yes (1), less is no (0).

Check out these entries, answers already filled in.
CC[C@@H]1CN2CCc3c([nH]c4cccc(C)c34)[C@@H]2C[C@@H]1/C(=C\OC)C(=O)OC
yes (1)
CC[C@@H]1CN2CCc3c([nH]c4ccc(-c5ccccc5)c(OC)c34)[C@@H]2C[C@@H]1/C(=C\OC)C(=O)OC
yes (1)
CC[C@@H]1CN2CCc3c([nH]c4ccc(C)c(OC)c34)[C@@H]2C[C@@H]1/C(=C\OC)C(=O)OC
yes (1)
CC[C@@H]1CN2CCc3c([nH]c4c(-c5ccoc5)ccc(OC)c34)[C@@H]2C[C@@H]1/C(=C\OC)C(=O)OC
yes (1)

Task item: Check the entry `CC[C@@H]1CN2CCc3c([nH]c4cccc(-c5ccccc5)c34)[C@@H]2C[C@@H]1/C(=C\OC)C(=O)OC` : does Emax equal or exceed 70%?
Reply: no (0)

Every entry's value here was drawn from ChEMBL document CHEMBL5030540.
